- Tested on: KM12
- assay-procedure: NCI tumour cell line growth inhibition, 48 h
Activity calls are given as the source filed them. No stated cut-off is given here; in the data, active = GI50 up to about 1.1 µM and inactive = higher.
Classes used: active, inactive

[[record]]
compound = "COc1cc2c(cc1OC)C1C(O)C(OC)C=C3CC[N+](C)(C2)C31 (stereo unspecified)"
classification = "inactive"

[[record]]
compound = "Clc1ccc(CN2COc3c(cc(Cl)c4cccnc34)C2)cc1"
classification = "inactive"

[[record]]
compound = "Clc1cc(OCc2nn3c(Cc4ccccc4)nnc3s2)ccc1OCc1nn2c(Cc3ccccc3)nnc2s1"
classification = "inactive"

[[record]]
compound = "Cc1ccc(S(=O)(=O)N/N=C2/C(=O)Nc3c(Cl)cc(Cl)cc32)cc1"
classification = "inactive"

[[record]]
compound = "CCOP(=O)(OCC)C1CC(C)OC1=O (stereo unspecified)"
classification = "inactive"

[[record]]
compound = "O=C1c2cccnc2-c2nccc3c2c1nc1ccc(Br)cc13"
classification = "active"

[[record]]
compound = "CNc1cc2c(c3ccccc13)C(CCl)CN2C(=O)c1cc2cc(OC)c(OC)c(OC)c2[nH]1 (stereo unspecified)"
classification = "active"

[[record]]
compound = "CCOC(=O)NC(C(=O)OCC)(N1CCN(c2cc3c(cc2F)c(=O)c(C(=O)O)cn3CC)CC1)C(F)(F)F (stereo unspecified)"
classification = "inactive"

[[record]]
compound = "CC1=C(/C=C/Cl)CC(Cl)C(C)(Cl)C1 (stereo unspecified)"
classification = "inactive"

[[record]]
compound = "Cc1ccc(S(=O)(=O)Nn2c(O)c(C#N)c(-c3ccc([N+](=O)[O-])cc3)c(C#N)c2=O)cc1"
classification = "inactive"

[[record]]
compound = "Cc1cnc2[nH]c(-c3ccccc3)cc(=O)c2c1"
classification = "active"

[[record]]
compound = "COc1ccc(C(O)c2nccn2C)c(OC)c1 (stereo unspecified)"
classification = "inactive"

[[record]]
compound = "CCCN(CCC)CCc1cc(C(C)=O)n(S(=O)(=O)c2ccc(C)cc2)c1"
classification = "inactive"

[[record]]
compound = "COc1ccc(OC)c(NC(=O)c2c(Cl)c(Cl)c(Cl)c(Cl)c2-c2nc3ccccc3[nH]2)c1"
classification = "inactive"

[[record]]
compound = "C=C1C(=O)OC2C1C(OC(=O)/C(C)=C/C)CC1(C)C(=O)CCC(=C)C21 (stereo unspecified)"
classification = "inactive"

[[record]]
compound = "COc1ccc(S(=O)(=O)NC(C)C(=O)O)cc1 (stereo unspecified)"
classification = "inactive"

[[record]]
compound = "COc1ccc2nc3n(c2c1)C(c1c(F)cccc1Cl)SC3 (stereo unspecified)"
classification = "inactive"

[[record]]
compound = "CN(C)c1cc[n+](-c2nc([N-]C(=O)C(F)(F)F)nc3c2ncn3C2CC(O)C(CO)O2)cc1 (stereo unspecified)"
classification = "inactive"

[[record]]
compound = "Oc1ncnc2c1CCCN2"
classification = "inactive"

[[record]]
compound = "CC(NC(=O)c1ccc(OP(=O)(OCc2ccc([N+](=O)[O-])o2)N(C)CCCCCl)cc1)c1ccc(OCC2CCCCC2)c(C(N)=O)c1 (stereo unspecified)"
classification = "inactive"

[[record]]
compound = "CC(=O)OCC1OC(OC(C)=O)C(Nc2ncc(-c3ccc(C)cc3)s2)C(OC(C)=O)C1OC(C)=O (stereo unspecified)"
classification = "inactive"

